Test System: PTHR1 receptor
Sequence (P25961 whole entry): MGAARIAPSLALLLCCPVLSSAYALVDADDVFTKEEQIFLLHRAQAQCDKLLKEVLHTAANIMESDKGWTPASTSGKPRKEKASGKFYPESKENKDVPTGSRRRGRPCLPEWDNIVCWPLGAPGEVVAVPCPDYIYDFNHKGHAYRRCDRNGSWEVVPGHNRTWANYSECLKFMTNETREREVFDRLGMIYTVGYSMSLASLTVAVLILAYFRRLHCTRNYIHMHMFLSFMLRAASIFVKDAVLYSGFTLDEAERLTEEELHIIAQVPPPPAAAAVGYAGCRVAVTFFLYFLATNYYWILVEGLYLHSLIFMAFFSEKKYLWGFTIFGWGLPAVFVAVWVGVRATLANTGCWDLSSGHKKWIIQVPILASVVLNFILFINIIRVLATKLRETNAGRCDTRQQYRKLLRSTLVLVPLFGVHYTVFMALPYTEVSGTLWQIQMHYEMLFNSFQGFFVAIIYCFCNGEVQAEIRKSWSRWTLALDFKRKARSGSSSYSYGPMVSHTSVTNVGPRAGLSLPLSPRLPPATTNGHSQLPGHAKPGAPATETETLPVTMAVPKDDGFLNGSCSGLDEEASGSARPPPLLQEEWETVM
* marks the point of attachment. Palmitoyl = CCCCCCCCCCCCCCCC(=O)*
Recorded Endpoint: Fold Shift of EC50 (fold)
Write down the numeric answer in fold and omit the unit.

INSERT INTO assay_data (binder, recorded_endpoint, unit_string, value_observed) VALUES
  ('Palmitoyl-DTRQQYRKLLKS-NH2 (SMILES CCCCCCCCCCCCCCCC(=O)N[C@@H](CC(=O)O)C(=O)N[C@H](C(=O)N[C@@H](CCCNC(=N)N)C(=O)N[C@@H](CCC(N)=O)C(=O)N[C@@H](CCC(N)=O)C(=O)N[C@@H](Cc1ccc(O)cc1)C(=O)N[C@@H](CCCNC(=N)N)C(=O)N[C@@H](CCCCN)C(=O)N[C@@H](CC(C)C)C(=O)N[C@@H](CC(C)C)C(=O)N[C@@H](CCCCN)C(=O)N[C@@H](CO)C(N)=O)[C@@H](C)O) [Compound 67]', 'Fold Shift of EC50', 'fold', 6),
  ('Palmitoyl-DTRQQYRKLLKSTL-NH2 (SMILES CCCCCCCCCCCCCCCC(=O)N[C@@H](CC(=O)O)C(=O)N[C@H](C(=O)N[C@@H](CCCNC(=N)N)C(=O)N[C@@H](CCC(N)=O)C(=O)N[C@@H](CCC(N)=O)C(=O)N[C@@H](Cc1ccc(O)cc1)C(=O)N[C@@H](CCCNC(=N)N)C(=O)N[C@@H](CCCCN)C(=O)N[C@@H](CC(C)C)C(=O)N[C@@H](CC(C)C)C(=O)N[C@@H](CCCCN)C(=O)N[C@@H](CO)C(=O)N[C@H](C(=O)N[C@@H](CC(C)C)C(N)=O)[C@@H](C)O)[C@@H](C)O) [Compound 56]', 'Fold Shift of EC50', 'fold', 1.9),
  ('Palmitoyl-RRLHSTRNYIHMHL-NH2 (SMILES CCCCCCCCCCCCCCCC(=O)N[C@@H](CCCNC(=N)N)C(=O)N[C@@H](CCCNC(=N)N)C(=O)N[C@@H](CC(C)C)C(=O)N[C@@H](Cc1c[nH]cn1)C(=O)N[C@@H](CO)C(=O)N[C@H](C(=O)N[C@@H](CCCNC(=N)N)C(=O)N[C@@H](CC(N)=O)C(=O)N[C@@H](Cc1ccc(O)cc1)C(=O)N[C@H](C(=O)N[C@@H](Cc1c[nH]cn1)C(=O)N[C@@H](CCSC)C(=O)N[C@@H](Cc1c[nH]cn1)C(=O)N[C@@H](CC(C)C)C(N)=O)[C@@H](C)CC)[C@@H](C)O) [Compound 16]', 'Fold Shift of EC50', 'fold', 2.45);

Now take the following binder into account.
query: Quickly give me recorded Fold Shift of EC50 for Palmitoyl-TNAGRSDTRQQYRALL-NH2 (SMILES CCCCCCCCCCCCCCCC(=O)N[C@H](C(=O)N[C@@H](CC(N)=O)C(=O)N[C@@H](C)C(=O)NCC(=O)N[C@@H](CCCNC(=N)N)C(=O)N[C@@H](CO)C(=O)N[C@@H](CC(=O)O)C(=O)N[C@H](C(=O)N[C@@H](CCCNC(=N)N)C(=O)N[C@@H](CCC(N)=O)C(=O)N[C@@H](CCC(N)=O)C(=O)N[C@@H](Cc1ccc(O)cc1)C(=O)N[C@@H](CCCNC(=N)N)C(=O)N[C@@H](C)C(=O)N[C@@H](CC(C)C)C(=O)N[C@@H](CC(C)C)C(N)=O)[C@@H](C)O)[C@@H](C)O) [Compound 90]
result: 2
